Protocol Details: Volume of distribution at steady state in rat at 1 mg/kg, iv and 1 mg/kg, po
Assay type: ADME, organism-based
Condition Parameters: in vivo, read-out: Vdss
Measurement Name: Vd

NC(=O)c1c(Nc2ccc(I)cc2F)cc(F)cc1Oc1cccc(NS(N)(=O)=O)c1	2 L/kg

---

Protocol Details: Volume of distribution at steady state in rat at 0.5 mg/kg, iv and 5 mg/kg, po
Type: ADME, organism-based
Condition Parameters: in vivo, read-out: Vdss
Measurement Name: Vd (L/kg)

Cn1cnc2c(F)c(Nc3ccc(Br)cc3Cl)c(C(=O)NOCCO)cc21	0.2

---

Protocol Details: Volume of distribution at steady state in rat at 0.3 mg/kg, iv and 0.6 mg/kg, po
Format: ADME, organism-based
Condition Parameters: in vivo, read-out: Vdss
Measurement Name: Vd (L/kg)

NC(=O)c1c(Nc2ccc(I)cc2F)cc(F)cc1OCC[C@@H](O)Cn1ccnc1	10.3

meta.source: ChEMBL document CHEMBL2375237
